System: Streptococcus pneumoniae
Assay: Antibacterial activity against erythromycin-susceptible Streptococcus pneumoniae 07H252 by broth microdilution method
Assay type: functional
Hi! Could you tag entries with MIC below 1 µg/mL as 1.0, and those at or above as 0.0? Much appreciated.

Worked examples follow.
Request: Decide: MIC of CC[C@H]1OC(=O)[C@H](C)C(=O)[C@H](C)[C@@H](O[C@@H]2O[C@H](C)C[C@H](N(C)C)[C@H]2O)[C@@](C)(OC)C[C@@H](C)C(=O)[C@H](C)[C@H]2N(CCCSc3nncs3)C(=O)O[C@]12C strictly below 1 µg/mL?
Response: 0.0

Request: # repeat for CC[C@H]1OC(=O)[C@H](C)C(=O)[C@H](C)[C@@H](O[C@@H]2O[C@H](C)C[C@H](N(C)C)[C@H]2O)[C@@](C)(OC)C[C@@H](C)C(=O)/C(C)=C/[C@]1(C)OC(=O)NCCCSc1nc2ccccc2o1
Response: 0.0

Request: Please answer likewise for CC[C@H]1OC(=O)[C@H](C)C(=O)[C@H](C)[C@@H](O[C@@H]2O[C@H](C)C[C@H](N(C)C)[C@H]2O)[C@@](C)(OC)C[C@@H](C)C(=O)[C@H](C)[C@H]2N(CCCSc3nnc(C)s3)C(=O)O[C@]12C
Response: 1.0

Request: Now the compound CC[C@H]1OC(=O)[C@H](C)[C@@H](O[C@H]2C[C@@](C)(OC)[C@@H](O)[C@H](C)O2)[C@H](C)[C@@H](O[C@@H]2O[C@H](C)C[C@H](N(C)C)[C@H]2O)[C@](C)(OC)C[C@@H](C)C(=O)[C@H](C)[C@@H](O)[C@]1(C)O
Response: 1.0

Request: And CC[C@H]1OC(=O)[C@H](C)C(=O)[C@H](C)[C@@H](O[C@@H]2O[C@H](C)C[C@H](N(C)C)[C@H]2O)[C@@](C)(OC)C[C@@H](C)C(=O)[C@H](C)[C@H]2N(CCCSc3nc(-c4ccccc4)cs3)C(=O)O[C@]12C ?
Response: 1.0

Below: the item to evaluate.
Request: Check if MIC falls below 1 µg/mL for CC[C@H]1OC(=O)[C@H](C)C(=O)[C@H](C)[C@@H](O[C@@H]2O[C@H](C)C[C@H](N(C)C)[C@H]2O)[C@@](C)(OC)C[C@@H](C)C(=O)[C@H](C)[C@H]2N(CCCSc3nccs3)C(=O)O[C@]12C .
Response: 1.0
